- testTarget: RASA1-N SH2 domain (Homo sapiens)
- Sequence (P20936 181-272 limits assumed): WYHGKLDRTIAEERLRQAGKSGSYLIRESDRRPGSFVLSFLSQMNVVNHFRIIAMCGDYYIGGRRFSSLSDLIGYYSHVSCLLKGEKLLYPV
Residues, ends and D or L forms follow the SMILES beside them.
# Lookup of reported Kd keyed by entry

| compound | Kd |
| --- | --- |
| CSCC[C@H](NC(=O)[C@H](Cc1ccc(OP(=O)(O)O)cc1)NC(=O)[C@H](CCC(=O)O)NC(=O)[C@H](Cc1ccc(O)cc1)NC(=O)CNC(=O)[C@@H](N)CC(C)C)C(=O)N[C@@H](CC(=O)O)C(=O)N[C@H](C(=O)NCC(=O)N[C@@H](CO)C(=O)N[C@@H](CC(=O)O)C(=O)N[C@@H](CC(C)C)C(=O)N[C@@H](CC(=O)O)C(=O)O)C(C)C [ErbB3 1224 13-mer] (HELM PEPTIDE1{L.G.Y.E.[O=C([C@H](Cc1ccc(OP(=O)(O)O)cc1)N[*:1])[*:2]].M.D.V.G.S.D.L.D}$$$$V2.0) | 1.24 µM |
| CC(C)C[C@H](NC(=O)[C@H](CO)NC(=O)[C@H](Cc1c[nH]cn1)NC(=O)[C@H](CC(N)=O)NC(=O)[C@H](Cc1c[nH]c2ccccc12)NC(=O)[C@H](Cc1ccc(OP(=O)(O)O)cc1)NC(=O)[C@H](CC(=O)O)NC(=O)[C@@H]1CCCN1C(=O)[C@H](CC(N)=O)NC(=O)[C@@H](N)CC(=O)O)C(=O)N1CCC[C@H]1C(=O)N1CCC[C@H]1C(=O)N[C@@H](CC(=O)O)C(=O)O [ErbB4 1242 13-mer] (HELM PEPTIDE1{D.N.P.D.[O=C([C@H](Cc1ccc(OP(=O)(O)O)cc1)N[*:1])[*:2]].W.N.H.S.L.P.P.D}$$$$V2.0) | 5.03 µM |
| NCCCC[C@H](NC(=O)[C@@H]1CCCN1C(=O)[C@H](Cc1ccccc1)NC(=O)[C@H](Cc1ccccc1)NC(=O)[C@H](CC(=O)O)NC(=O)[C@H](CCC(N)=O)NC(=O)[C@H](CCC(N)=O)NC(=O)[C@H](Cc1ccc(OP(=O)(O)O)cc1)NC(=O)[C@H](CC(=O)O)NC(=O)[C@@H]1CCCN1C(=O)[C@H](CC(N)=O)NC(=O)[C@@H](N)CC(=O)O)C(=O)N[C@@H](CC(=O)O)C(=O)O [ErbB1 1172 13-mer] (HELM PEPTIDE1{D.N.P.D.[O=C([C@H](Cc1ccc(OP(=O)(O)O)cc1)N[*:1])[*:2]].Q.Q.D.F.F.P.K.D}$$$$V2.0) | 4.17 µM |
| CSCC[C@H](NC(=O)[C@@H](NC(=O)[C@H](Cc1ccc(OP(=O)(O)O)cc1)NC(=O)[C@H](C)NC(=O)[C@H](CCC(=O)O)NC(=O)[C@H](CC(=O)O)NC(=O)[C@@H](N)CC(C)C)C(C)C)C(=O)N[C@@H](C)C(=O)N[C@@H](CO)C(=O)N[C@H](C(=O)N[C@@H](CC(=O)O)C(=O)N[C@@H](CC(N)=O)C(=O)N[C@@H](CC(=O)O)C(=O)O)C(C)C [ErbB1 764 13-mer] (HELM PEPTIDE1{L.D.E.A.[O=C([C@H](Cc1ccc(OP(=O)(O)O)cc1)N[*:1])[*:2]].V.M.A.S.V.D.N.D}$$$$V2.0) | 9.7 µM |
